Below is a list of entries, each paired with its recorded self-cleavage kobs at 160 uM GlcN6P value.
B1: glmS ribozyme (parent)
chain: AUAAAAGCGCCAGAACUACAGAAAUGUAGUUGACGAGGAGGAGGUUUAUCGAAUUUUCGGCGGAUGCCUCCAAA

variants of: B1; assay: self-cleavage kobs at 160 uM GlcN6P; higher = faster cleavage; RNA array; settings: with glucosamine-6-phosphate
Fewer inactive variants are shown than the library holds.

variantKey	self-cleavage kobs at 160 uM GlcN6P
A12U A15G C16U U31G C71U	0.000195 s⁻¹
A12U U47C U65C	< 1e-05 s⁻¹
C10G U31C A48U C61A C70G	< 1e-05 s⁻¹
C8A G38U	< 1e-05 s⁻¹
A36U U45A	< 1e-05 s⁻¹
A12G G51A	< 1e-05 s⁻¹
G7U A14C A48U	< 1e-05 s⁻¹
G35C G62A	< 1e-05 s⁻¹
A12U G37A G40C	2.74e-05 s⁻¹
G41C G44C	< 1e-05 s⁻¹
G44U C58A C71A	< 1e-05 s⁻¹
